Assay: qHTS assay to test for compound auto fluorescence at 460 nm (blue) in HEK293 cell free culture (AID 720681)
Conditions: cell-free medium, autofluorescence 405/460 nm (blue); series mostly up to 91.3 µM
The source made the active and inactive calls. Calls come from the whole dose curve; as a rule, active = well fitted curve in the direction sought with a large enough effect in the repeat runs; inconclusive = weak or mixed curves; inactive = flat fitted curve, though single readings scatter.
measured quantity: outcome

Use these answered entries as a reference point.
- compound: "O=C(O)CCCCC1CCSS1 (centres undefined)"
  outcome: "inactive"
- compound: "CCCCNC(=O)NS(=O)(=O)c1ccc(N)cc1"
  outcome: "inactive"
- compound: "CC(C)(C)CC(C)(C)c1ccc(O)c(-n2nc3ccccc3n2)c1"
  outcome: "inactive"
- compound: "COc1ccccc1O"
  outcome: "inactive"
- compound: "COC(=O)C1CCC(C(=O)OC)CC1 (centres undefined)"
  outcome: "inactive"

The compound identified as COCCOCCOC registered its outcome at inactive

The compound identified as O=c1c(-c2ccc(O)cc2)coc2cc(O)cc(O)c12 registered its outcome at inactive

The compound identified as C=CC(=O)NC(C)(C)CS(=O)(=O)O registered its outcome at inactive

The compound identified as O=C1CCCCCN1 registered its outcome at inactive

The compound identified as CC(=O)Oc1ccccc1C(=O)O registered its outcome at inactive

The compound identified as CO[C@H]1C=CO[C@@]2(C)Oc3c(C)c(O)c4c(O)c(c(/C=N/N5CCN(C)CC5)c(O)c4c3C2=O)NC(=O)/C(C)=C\C=C[C@H](C)[C@H](O)[C@@H](C)[C@@H](O)[C@@H](C)[C@H](OC(C)=O)[C@@H]1C registered its outcome at inactive

---

Experiment: qHTS assay to identify small molecule antagonists of the androgen receptor (AR) signaling pathway using the MDA cell line - cell viability counter screen (AID 743041; note: nearly all actives have a fitted effect of over 45% in size)
Settings: MDA-kb2 viability, CellTiter-Fluor, 16 h, cells co-treated with R1881 androgen agonist; series mostly up to 70.3 µM
Results filed as inconclusive are left out. Activity calls are given as the source filed them. Calls follow the shape of the dose curve; as a rule, active = well fitted cell-killing curve with a large enough effect in the repeat runs; inconclusive = weak or mixed curves, or effect the other way; inactive = flat fitted curve, though single readings scatter.
Select the correct class. Options are 1 (active), -1 (inactive) and nothing else.

Worked set:
- compound: "CC(=O)Oc1ccccc1C(=O)O"
  assigned class: -1
- compound: "CCCCCCCCCCCCCCCCCC(=O)OCC(O)CO (centres undefined)"
  assigned class: -1
- compound: "NC(=O)NO"
  assigned class: -1
- compound: "O=C(O)CN(CC(=O)O)CC(=O)O"
  assigned class: -1
- compound: "C#C[C@]1(O)CC[C@H]2[C@@H]3CCc4cc(O)ccc4[C@H]3CC[C@@]21C"
  assigned class: -1

## Input # fetch the recorded call for CCCCOCCOCCSC#N here
## Output -1

## Input # fetch the recorded call for CCN(CC)CCOC(=O)c1ccc(N)cc1 here
## Output -1

## Input # fetch the recorded call for COc1cc(C=O)ccc1O here
## Output -1

## Input # fetch the recorded call for C1CNCCN1 here
## Output -1

## Input # fetch the recorded call for OCCCc1ccccc1 here
## Output -1

## Input # fetch the recorded call for NCCNc1cccc2ccccc12 here
## Output -1

## Input # fetch the recorded call for C#C[C@]1(O)CC[C@H]2[C@@H]3CCC4=CC(=O)CC[C@@H]4[C@H]3CC[C@@]21CC here
## Output -1

## Input # fetch the recorded call for CO[C@H]1C=CO[C@@]2(C)Oc3c(C)c(O)c4c(O)c(c(/C=N/N5CCN(C)CC5)c(O)c4c3C2=O)NC(=O)/C(C)=C\C=C[C@H](C)[C@H](O)[C@@H](C)[C@@H](O)[C@@H](C)[C@H](OC(C)=O)[C@@H]1C here
## Output 1
